test system: SF-539; assay: Antiproliferative activity against human SF-539 cells measured after 48 hrs by SRB assay; format: functional, cell-based; details: SF-539, 48 h
Reported IC50 is given for each of the following compounds.
State the answer as a number, implicitly in µM.

Readout IC50 for "O=C(NCCCNc1cc(-c2cn(-c3ccccc3)nc2-c2cccc(O)c2)ccn1)Nc1ccc(F)cc1" , test system SF-539, was 1.98

Readout IC50 for "O=C(NCCCNc1cc(-c2cn(-c3ccccc3)nc2-c2cccc(O)c2)ccn1)Nc1cccc(C(F)(F)F)c1" , test system SF-539, was 2.78

Readout IC50 for "COc1cccc(-c2nn(-c3ccccc3)cc2-c2ccnc(NCCCNC(=O)Nc3ccc(F)cc3)c2)c1" , test system SF-539, was 6.34

Readout IC50 for "O=C(Nc1ccc(Cl)c(C(F)(F)F)c1)N1CCN(c2cc(-c3cn(-c4ccccc4)nc3-c3cccc(O)c3)ccn2)CC1" , test system SF-539, was 4.21

Readout IC50 for "O=C1c2ccccc2-c2n[nH]c3cccc1c23" , test system SF-539, was 32.2
